target: L-lactate dehydrogenase (Plasmodium falciparum (isolate CDC / Honduras)); experiment: PfLDH activity inhibition – cell lysate, 3D7 strain, counter-screen for P. falciparum growth inhibition project (AID 2304);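 also: 0% = vehicle and 100% = reference inhibitor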; conditions: P. falciparum 3D7 crude extract, LDH APAD/NBT absorbance; at 2 µM; hits give high values
Below, each entry is listed alongside its reported inhibition.
assayMetric: inhibition (%)

>  <compound>
CN1CCCC1CCNCc1ccc(-c2ccc(CNCCc3ccccc3)cn2)cc1 (stereo not given)

>  <val>
2

$$$$
>  <compound>
N#Cc1ccc2c(c1)CCN(CCC1CCC(NC(=O)/C=C/c3cccc4cc[nH]c34)CC1)CC2 (stereo not given)

>  <val>
-3

$$$$
>  <compound>
COc1cc2nc(NCCc3ccccc3)nc(NC(C)c3ccccc3)c2cc1OC (stereo not given)

>  <val>
1

$$$$
>  <compound>
Cc1ccc(N/C(N)=N/c2ncccc2OCc2c(F)cccc2Cl)cc1

>  <val>
-2

$$$$
>  <compound>
c1cc(CN2CCCCC2)cc(OCCCNc2ccnc3ccccc23)c1

>  <val>
-1

$$$$
>  <compound>
CCC[C@@H]([C@@H](Cc1ccc(C)s1)C(=O)N[C@@H](CNC(C)=O)C(=O)Nc1nccs1)N(O)C=O

>  <val>
2

$$$$
>  <compound>
CCC(ON1C(N)=NC(N)=NC1(C)C)c1ccc(Cl)cc1 (stereo not given)

>  <val>
3

$$$$
>  <compound>
COc1ccccc1CN1CCC(CNC(=O)c2cc(-c3ccc(N(C)C)cc3)cs2)C1 (stereo not given)

>  <val>
-5

$$$$
>  <compound>
Cc1cc(CNCC2CCC(CNCCCc3ccccc3)CC2)ccc1O (stereo not given)

>  <val>
7

$$$$
>  <compound>
COC(=O)c1cccc(CNCc2ccc(-c3ccc(-c4nc5ccccc5[nH]4)s3)cc2)c1

>  <val>
4

$$$$

###

test: antimalarial activity against Dd2 strain (AID 2302);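 also: 0% = DMSO untreated growth and 100% = chloroquine plus artemisinin killed control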; settings: P. falciparum Dd2 in RBCs, LDH growth readout, 72 h; at 2 µM
The source made the active and inactive calls.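 Rule for the calls: active = growth inhibition above 50% at the single 2 µM test dose, taken to imply half-maximal potency below 2 µM; inactive = the rest.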
Outcomes: label 1 (active), label 0 (inactive)

>  <compound>
COc1ccc(OCC(=O)Nc2nc(-c3ccc(OC)cc3)c(C)s2)cc1

>  <assignedCategory>
label 1

$$$$
>  <compound>
c1ccc(C(c2cccs2)N2CCN(Cc3ccc(OCCCN4CCCCC4)cc3)CC2)cc1 (stereo not drawn)

>  <assignedCategory>
label 0

$$$$
>  <compound>
O=C(Nc1ccccc1)Nc1cccc(-c2nn3c(OCC4CCCCN4)cccc3c2-c2ccncc2)c1 (stereo not drawn)

>  <assignedCategory>
label 1

$$$$
>  <compound>
CCCCCN1CCCN(Cc2cccc(NC(=O)c3cc4ccccc4s3)c2)CC1

>  <assignedCategory>
label 0

$$$$
>  <compound>
S=C(Nc1cccc(Cl)c1)NC1CCN(c2ccnc3cc(Cl)ccc23)C1 (stereo not drawn)

>  <assignedCategory>
label 1

$$$$
>  <compound>
Cc1cc(F)ccc1[C@H]1CNCCN1C(=O)N(C)C(C)(C)c1cc(C(F)(F)F)cc(C(F)(F)F)c1

>  <assignedCategory>
label 1

$$$$
>  <compound>
CC(C)(C)c1ccc(CN2CCC(NC(=O)c3ccc(-c4cccc(Cl)c4)s3)CC2)cc1

>  <assignedCategory>
label 0

$$$$
>  <compound>
Brc1cc(Br)c2c(c1)C(NCCCNc1nc3ncccc3[nH]1)CCN2 (stereo not drawn)

>  <assignedCategory>
label 1

$$$$
>  <compound>
O=C(Nc1ccc(Cl)cc1)Nc1cccc(-c2cccc(-c3nc4ccc(C(F)(F)F)cc4[nH]3)c2)c1

>  <assignedCategory>
label 1

$$$$
>  <compound>
C#CCN(Cc1cc2c(=O)[nH]c(N)nc2cc1C)c1ccc(C(=O)N[C@@H](CCC(=O)O)C(=O)O)cc1

>  <assignedCategory>
label 1

$$$$
>  <compound>
CCOc1cccc(C2c3c(oc4ccccc4c3=O)C(=O)N2CCN(CC)CC)c1 (stereo not drawn)

>  <assignedCategory>
label 1

$$$$
>  <compound>
COc1cccc(CNC(=O)[C@@H]2CN(C(=O)c3ccccc3)CCN2)c1

>  <assignedCategory>
label 0

$$$$
>  <compound>
Cc1c(CNCCCNc2nc3cscc3[nH]2)sc(C(F)F)c1Br

>  <assignedCategory>
label 0

$$$$
>  <compound>
COc1ccc(CN2CCC2=O)c(OC)c1

>  <assignedCategory>
label 1

$$$$
>  <compound>
Nc1cccc(CNCc2ccc(-c3cccc(-c4nc5ccc(C(F)(F)F)cc5[nH]4)c3)cc2)c1

>  <assignedCategory>
label 1

$$$$
>  <compound>
Cn1nc(-c2ccccc2F)c2cc(C(=O)Nc3cccnc3)sc21

>  <assignedCategory>
label 1

$$$$
>  <compound>
CN(C)C(=O)c1ccc(CN(Cc2cccc(OC(C)(C)C)c2)Cc2ccc3c(c2)OCCO3)cc1

>  <assignedCategory>
label 1

$$$$
>  <compound>
O=C(NCCCN1CCOCC1)c1csc(Nc2ccc(Cl)c(Cl)c2)n1

>  <assignedCategory>
label 0

$$$$
>  <compound>
CC(C)(C)c1ccc(NC(=O)c2ccc(CN3CCCN(Cc4cccc(Cl)c4)CC3)cc2)cc1

>  <assignedCategory>
label 0

$$$$
>  <compound>
Cc1ccc2nc(-c3ccc(C=CC(=O)NCc4ccc(Cl)c(Cl)c4)cc3)[nH]c2c1

>  <assignedCategory>
label 0

$$$$
>  <compound>
NC(=O)CNC(=O)CCCN=C(N)N

>  <assignedCategory>
label 0

$$$$
>  <compound>
COc1ccccc1C1CCN(C2CCC(NC(=O)/C=C/c3cccc(C(F)(F)F)c3)CC2)CC1 (stereo not drawn)

>  <assignedCategory>
label 0

$$$$
>  <compound>
Cc1ccc(CNC(=O)[C@H](Cc2ccccc2)Nc2ccnc(NCC3CCCCC3)n2)cc1

>  <assignedCategory>
label 1

$$$$
>  <compound>
O=C(NCC1CCC(C(=O)NC2CCCc3ccccc32)CC1)c1ccc(O)c(-c2ccc(Cl)c(Cl)c2)c1 (stereo not drawn)

>  <assignedCategory>
label 1

$$$$
>  <compound>
Cc1ccccc1C1CCN(C2CCC(NC(=O)/C=C/c3ccc(F)c(F)c3)CC2)CC1 (stereo not drawn)

>  <assignedCategory>
label 0

$$$$
>  <compound>
CCCc1cc(OC)c(C[C@H]2c3cc(O)c(Cl)cc3CCN2C)cc1OC

>  <assignedCategory>
label 1

$$$$
>  <compound>
CCCCNS(=O)(=O)c1ccc(NC(=O)c2cc([N+](=O)[O-])ccc2Cl)cc1

>  <assignedCategory>
label 0

$$$$
>  <compound>
CN(C)c1ccc(-c2cscc2C(=O)NC2CCCN(Cc3cccnc3)C2)cc1 (stereo not drawn)

>  <assignedCategory>
label 1

$$$$
>  <compound>
COc1ccc(CN(C)CCCOc2ccc(NC(=O)c3cccc4c(=O)c5cccc(C)c5[nH]c34)cc2)cc1OC

>  <assignedCategory>
label 1

$$$$
>  <compound>
O=C(Nc1cccc(-c2cccc(-c3nc4ccc(C(F)(F)F)cc4[nH]3)c2)c1)Nc1ccc(F)c(F)c1F

>  <assignedCategory>
label 1

$$$$
>  <compound>
CCCCCCCNc1cc(C)nc2ccc(OC)cc12

>  <assignedCategory>
label 1

$$$$
>  <compound>
CC(C)C[C@H](NC(=O)c1ccc(OCCN2CCOCC2)cc1)C(=O)N[C@H](/C=N/N1CCNC1=O)CCc1ccccc1

>  <assignedCategory>
label 1

$$$$
>  <compound>
COCCN1CCC(N(CC2(O)CCN(c3ccc(C(F)(F)F)cc3)CC2)C(=O)Cn2c(SCc3cccc(F)c3F)cc(=O)c3ccccc32)CC1

>  <assignedCategory>
label 1

$$$$
>  <compound>
Oc1ccccc1CN[C@@H]1CCCC[C@H]1NCc1ccccc1O

>  <assignedCategory>
label 1

$$$$
>  <compound>
CC1(C)N=C(NC(=O)c2cc([N+](=O)[O-])cc([N+](=O)[O-])c2)N=C(N)N1OCc1cccc2ccccc12

>  <assignedCategory>
label 0

$$$$
>  <compound>
COc1ccc2nccc([C@@H](O)CN3CCC(NCc4cc5cc(Cl)ccc5[nH]4)CC3)c2c1

>  <assignedCategory>
label 1

$$$$
>  <compound>
Cc1[nH]c(C)c(-c2ccc(OCc3cc(C(F)(F)F)cc(C(F)(F)F)c3)nc2)c(=O)c1Cl

>  <assignedCategory>
label 1

$$$$
>  <compound>
c1cc(CNCC2CCCO2)cc(-c2ccc(-c3nc4ccccc4[nH]3)s2)c1 (stereo not drawn)

>  <assignedCategory>
label 0

$$$$

The values you see were collected from PubChem BioAssay.
